# Test Summary: in vitro
# Condition Description: human, hela cells, % viability
Endpoint: viability at 28.5 h, 10 µM (%)
The reply should be a number in %, with the unit left off.

Known results for molecules:
Cc1nc2ccccc2c(SCCC(=O)O)c1Cc1ccccc1 [CBK144942T] : 88.9
Nc1nnc(C2CCCCC2)s1 : 84.5
Cc1cc(C)n(CC2CN(CC(=O)NCc3ccccn3)CCO2)n1 (centres unmarked) : 107

Query: viability at 28.5 h, 10 µM; subject: O=C(C1CCC1)N1CCC(c2onc3c2CCCCC3)CC1 104

Look at this molecule and give its reported viability at 28.5 h, 10 µM. COc1cccc(-c2nnc(SCC(=O)Nc3cc(C)on3)o2)c1 89.9

Value lookup for viability at 28.5 h, 10 µM; key = CCOc1cc(C(c2c[nH]c3ccccc23)c2c[nH]c3ccccc23)cc([N+](=O)[O-])c1O 101

Fill blank: measured viability at 28.5 h, 10 µM of the molecule Cc1ccc(N2C(=O)CSC2c2ccc(Cl)cc2Cl)cc1 (centres unmarked) is ____. 105

Recorded viability at 28.5 h, 10 µM for CC(C)NC(=O)Cn1nnc(-c2cccc(C(F)(F)F)c2)n1 , please? 95.2

Dear colleague, I am looking for the recorded viability at 28.5 h, 10 µM of the following molecule: O=C(CCn1c(CO)nc2ccccc21)c1ccccc1 102

---

Measured viability at 28.5 h, 10 µM, listed per entry for reference.
# Test Summary: in vitro
# Condition Description: human, hela cells, % viability
# output: bare number, implied unit %

COCCNc1nc2c(c(N3CCCC(CO)C3)n1)CCNCC2 (centres unmarked) [CBK307242] : 111
Cc1ccccc1C(=O)Nc1cc(NC(=O)c2ccccc2C)cc(C(=O)O)c1 [CBK262007] : 109
Cc1ccc2c(c1)c(NC(=O)OC(C)C)nn2Cc1cc2c(cc1Cl)OCO2 [CBK048652] : 99.9
c1ccc2c(Sc3cnccn3)cccc2c1 [CBK085841] : 90.7
O=C(O)c1cc2ccccc2[nH]1 [CBK015732] : 100
COc1ccc(Nc2nc(N)nc(CSC(=S)N3CCN(C)CC3)n2)cc1 [CBK265232] : 90.8

// returns reported viability at 28.5 h, 10 µM for input Cc1ccnc(NS(=O)(=O)c2ccc(NS(C)(=O)=O)cc2)n1 [CBK261552] 100

Record request: viability at 28.5 h, 10 µM value, item COc1ccc(CCNC(=O)C2CCCN(S(=O)(=O)c3ccc4ccccc4c3)C2)cc1 (centres unmarked) [CBK269601] 101

Quick one: viability at 28.5 h, 10 µM for COc1ccccc1CN1CC2CCCN2C[C@H]1C (some centres unmarked) [CBK285409] ? 90.6

---

# Test Summary: in vitro
# Condition Description: human, hela cells, % viability
// reported viability at 28.5 h, 10 µM for each item listed
Give a bare numeral; the unit % is implied.

Study these solved cases before continuing.
COc1ccc(CN2CCN(C(=O)c3cccc(F)c3)CC2)c(OC)c1OC [CBK074523] : 95.5
O=C1CC[C@@H](NCc2ccccn2)[C@H](c2cc(F)cc(F)c2)N1 [CBK282911] : 98.8
Cc1ccc(OCc2nnc(SCC(=O)c3cccs3)n2-c2ccccc2)cc1C [CBK265033] : 101

# evaluate next
viability at 28.5 h, 10 µM for Cn1cnnc1Sc1cc(N2CCN(S(=O)(=O)c3ccc(Cl)c(Cl)c3)CC2)ccc1[N+](=O)[O-] [CBK266618] ? 98.3

---

viability at 28.5 h, 10 µM values by entry
# Test Summary: in vitro
# Condition Description: human, hela cells, % viability
Enter your answer as a number in %; do not include the unit.

Illustrative cases are given below, each with its answer.
CCc1nc2c(C(=O)NCCNC(C)=O)cnn2c(CC)c1Cc1ccc(Cl)cc1 : 86
c1ccc(-c2ccc(COc3cncc(N4CCNCC4)n3)s2)nc1 [CBK008960G] : 85.4
Cc1cc(C)nc(N(C#N)CC(=O)c2ccc(Br)cc2)n1 : 91.3
CC(=O)NCCN1CC[C@H]2CN(C(=O)COc3ccccc3)CC[C@H]2CC1=O : 84.6
Cc1cnc2c(N3CCCC3)nc(Cl)cn12 : 104

Recorded viability at 28.5 h, 10 µM for O=C1N[C@@H]2CCN(C(=O)COc3cccnc3)C[C@@H]2CCCCCOc2ccccc21 , please? 94.6

Can you share its viability at 28.5 h, 10 µM? I mean this compound: O=C(Nc1snnc1-c1ccc(Cl)cc1)c1cccc(C(F)(F)F)c1 72.5

Requested field: viability at 28.5 h, 10 µM. Item: CC(C)Nc1nc2cc(Cl)c(Cl)cc2nc1Sc1nc[nH]n1 93.3

Given the entry Cc1cc2c(s1)c1cnn(Cc3ccncc3)c(=O)c1n2C , report its measured viability at 28.5 h, 10 µM. 86.4

Entry CCCS(=O)(=O)Nc1cccc(-c2nnn[nH]2)c1 has what viability at 28.5 h, 10 µM? 104

---

# Test Summary: in vitro
# Condition Description: human, hela cells, % viability
The entries below are paired with their reported viability at 28.5 h, 10 µM.
# unit: % | format: bare number

Solved entries (count: 4):
CC(=O)NS(=O)(=O)c1ccc(NC(=O)c2cn(-c3ccccc3)nc2-c2cccs2)cc1 : 86.3
COc1ccc2c(c1)C(O)C(NCc1ccccc1)C2 (centres unmarked) [CBK015469C] : 104
O=C(NC1CCNCC1)c1cc2ccccc2[nH]1 : 84.6
Cc1ccc(C(=O)N2CCN(Cc3cc(=O)n4ccsc4n3)CC2)cc1 : 107

Note: attention shifts to another entry.
Requested field: viability at 28.5 h, 10 µM. Item: COc1ccc(-c2cc(C(=O)Nc3nc4c(OC)cccc4s3)cnc2-c2ccccc2)cn1 105

---

viability at 28.5 h, 10 µM values by entry
# Test Summary: in vitro
# Condition Description: human, hela cells, % viability
Note: unit % is implicit; provide only the numeric part.

A selection of reference data follows.
OCC(O)/C=N/Nc1nc(N2CCCCC2)nc(N2CCCCC2)n1 (stereo not drawn) : 107
COc1cccc(Cn2c(=O)c3sccc3n(CC(=O)NCc3ccc(C)cc3)c2=O)c1 : 80.8
Cc1c(-c2ccc(OCC(N)=O)cc2)nc2ccc(Br)cc2c1C(=O)O : 93.1
O=C(C1CC=CCC1)N1CCC(c2[nH]ncc2-c2ccncc2)CC1 (stereo not drawn) : 84
CN1CCN(C(=O)CNS(=O)(=O)c2ccc(Br)cc2)CC1 : 101
CC(=O)Nc1ccc(-c2cncc(N3CCN(C(=O)c4ccco4)CC3)n2)cc1 : 99.3
O=C(NCCSCc1c(F)cccc1Cl)Nc1cccc(Cl)c1 : 98.6
Cc1[nH]c(=O)[nH]c(=O)c1Cc1ccccc1 : 113

Then there is this molecule:
Which viability at 28.5 h, 10 µM reading was recorded for the molecule Cn1c(Sc2ccc(C(=O)O)cc2[N+](=O)[O-])nnc1-c1ccccc1 ? 103

---

# Test Summary: in vitro
# Condition Description: human, hela cells, % viability
viability at 28.5 h, 10 µM strictly under 90% means y; at 90% or over means n.

Study these solved cases before continuing.
CN1C[C@H](C(N)=O)[C@@H](c2ccc(CN(C)C(=O)c3cccc(Oc4ccccc4)c3)cc2)C1 [CBK285572] : n
FC(F)(F)c1ccc2c(c1)nc(S)n2C1CC1 [CBK288483] : y

Please look at the following molecule next.
Decide: viability at 28.5 h, 10 µM of O=C(CC1CCCC1)N1CCC(c2nnc3n2CCCCC3)CC1 [CBK284630] strictly below 90%? y

---

# Test Summary: in vitro
# Condition Description: human, hela cells, % viability
Consider the following compounds and their measured viability at 28.5 h, 10 µM readings.
Express the result in % but write the number alone.

Below are worked cases with known answers.
O=C(Nc1[nH]nc(O)c1Cc1c(Cl)cccc1Cl)C1CCCCC1 [CBK084558] : 92.9
Cc1cc(C(=O)O)ccc1-c1ccc(/C=N/n2cnnc2)o1 [CBK264713] : 92.5
CC(C)(C)c1nc(NS(=O)(=O)c2ccc(Cl)cc2)sc1Br [CBK014258] : 102
O=C(NCCc1c[nH]c2ccc(Cl)cc12)c1c(F)ccc(Cl)c1F [CBK159756] : 93
CC(C)c1cccc(N2CC(C(=O)Nc3cc(S(C)(=O)=O)ccc3F)CC2=O)c1 (stereo not shown) [CBK296751] : 96.8

Please give the measured viability at 28.5 h, 10 µM for this compound: Nc1ncc(-c2ccc(C(=O)N3CCOCC3)cc2)nc1C(=O)NC1CCCCC1 [CBK149160] 89.3

---

viability at 28.5 h, 10 µM reference
# Test Summary: in vitro
# Condition Description: human, hela cells, % viability
Please give a number only; it is taken to be in %.

O=C(O)c1ccc(Oc2ccc([N+](=O)[O-])cc2)cc1C(=O)O : 89
COc1ccc(C2(C(=O)NCc3ccc(-c4ccc(C(N)=O)c(C)n4)cc3)CCCC2)cc1 : 96
Cc1cc(/C=C2\NC(=O)NC2=O)c(C)n1-c1ccc(OCc2ccccc2F)cc1 : 88.3
CN1CCN(c2cc(CNC(=O)c3ccnc(Cl)c3)ccn2)CC1 : 92.4
COc1ccc(-c2noc(CSc3nnc(-c4cccs4)n3-c3ccccc3)n2)cc1 : 107
N#C/C(=C\c1ccc(-c2ccc(C(=O)O)cc2)o1)C(=O)NCc1ccco1 : 101
C(=C\c1ccccc1)/CN1CCN(CCc2ccccc2)CC1 : 93.4
OCCCNc1nccnc1-c1cccnc1 : 108

Next item in the queue.
# lookup: viability at 28.5 h, 10 µM of CN1CCN(c2n[nH]c(N)n2)CC1 90.5
